Data origin, for the record: patent US20060172990A1

Listing of recorded MIC by entry.
Test system: H. influenzae
Assay remarks: MIC by agar plate dilution against clinical isolates of H. influenzae
Assay type: cell-based
Assay context: Haemophilus influenzae, 2 strains (clinical isolates), Iso-Sensitest agar, 18 to 24 hr, 35° C., read-out: MIC range H. influenzae

Example cases with answers are listed next.
> print(dat)
                                   compound  observable  reported.value
1  CC(C)N(CC(=O)Nc1cccnc1)NC(=O)[C@H](CC1CCCC1)CN(O)C=O [Example 6]         MIC        32 µg/mL
2  CC(C)N(CC(=O)N1CCCC1)NC(=O)[C@H](CC1CCCC1)CN(O)C=O [Example 2]         MIC         8 µg/mL
3  CC(C)N(CC(=O)N(C)C)NC(=O)[C@H](CC1CCCC1)CN(O)C=O [Example 3]         MIC  0.5 to 1 µg/mL

What the record says about CC(C)N(CC(=O)Nc1nccs1)NC(=O)[C@H](CC1CCCC1)CN(O)C=O [Example 7] : MIC is 16 to 32 µg/mL

What the record says about CC(C)N(CC(=O)N1CCN(Cc2ccc3c(c2)OCO3)CC1)NC(=O)[C@H](CC1CCCC1)CN(O)C=O [Example 5] : MIC is > 32 µg/mL

What the record says about Cc1csc(NC(=O)CN(NC(=O)[C@H](CC2CCCC2)CN(O)C=O)C(C)C)n1 [Example 9] : MIC is > 32 µg/mL

What the record says about CC(C)N(CC(=O)Nc1nc2ccccc2s1)NC(=O)[C@H](CC1CCCC1)CN(O)C=O [Example 10] : MIC is > 32 µg/mL

What the record says about COc1cc2c(cc1OC)CN(C(=O)CN(NC(=O)[C@H](CC1CCCC1)CN(O)C=O)C(C)C)CC2 [Example 4] : MIC is 32 µg/mL

* * *

Tested on: M. catarrhalis
Assay remarks: MIC by agar plate dilution against clinical isolate of M. catarrhalis
Format: cell-based
Assay context: Moraxella catarrhalis, 1 strain (clinical isolate), Iso-Sensitest agar, 18 to 24 hr, 35° C.
Observable: MIC (µg/mL)

> print(dat)
                              sample.smiles  target.of.assay  reported.value
1  CC(C)N(CC(=O)Nc1nc2ccccc2s1)NC(=O)[C@H](CC1CCCC1)CN(O)C=O   M. catarrhalis               2
2  CC(C)N(CC(=O)Nc1nccs1)NC(=O)[C@H](CC1CCCC1)CN(O)C=O   M. catarrhalis               2
3  CC(C)N(CC(=O)N(C)C)NC(=O)[C@H](CC1CCCC1)CN(O)C=O   M. catarrhalis             0.5

(P) COc1cc2c(cc1OC)CN(C(=O)CN(NC(=O)[C@H](CC1CCCC1)CN(O)C=O)C(C)C)CC2
(Q) CC(C)N(CC(=O)Nc1cccnc1)NC(=O)[C@H](CC1CCCC1)CN(O)C=O
Exercise: Rank P against Q by their MIC values and give the higher one. Please reply using the label of the selected record.
Solution: Q

* * *

System: M. catarrhalis
Assay remarks: MIC by agar plate dilution against clinical isolate of M. catarrhalis
Type: cell-based
Assay context: Moraxella catarrhalis, 1 strain (clinical isolate), Iso-Sensitest agar, 18 to 24 hr, 35° C.
Observable: MIC (µg/mL)

Example cases with answers are listed next.
> print(dat)
                              sample.smiles  target.of.assay  reported.value
1  Cc1coc(NC(=O)CN(NC(=O)[C@H](CC2CCCC2)CN(O)C=O)C(C)C)n1   M. catarrhalis               2
2  CC(C)N(CC(=O)N1CCCC1)NC(=O)[C@H](CC1CCCC1)CN(O)C=O   M. catarrhalis             0.5

(I) CC(C)N(CC(=O)N1CCN(Cc2ccc3c(c2)OCO3)CC1)NC(=O)[C@H](CC1CCCC1)CN(O)C=O
(II) Cc1csc(NC(=O)CN(NC(=O)[C@H](CC2CCCC2)CN(O)C=O)C(C)C)n1
Exercise: Of I versus II , which is the one with smaller reported MIC? Please reply using the label of the selected record.
Solution: I
